Tested on: HCI-011.E2 (organoid from an ER-positive breast cancer xenograft)
Experiment: CTG-3D luminescence at 96 h relative to day-0 seeding control (ratio to day 0); higher = more growth / less cytotoxicity; PDxO 3D drug screen, 96 h, CTG-3D normalised to day-0 seeding control.
Details: 0.1 µM
PARAMETER: CTG-3D luminescence at 96 h

**Query** GET CTG-3D luminescence at 96 h where system = HCI-011.E2 and item = CN(Cc1cnc2nc(N)nc(N)c2n1)c1ccc(C(=O)N[C@@H](CCC(=O)O)C(=O)O)cc1 [methotrexate]
**Result** 1.83

**Query** GET CTG-3D luminescence at 96 h where system = HCI-011.E2 and item = CC(=O)O[C@H]1C(=O)[C@@]2(C)[C@H]([C@H](OC(=O)c3ccccc3)[C@]3(O)C[C@H](OC(=O)[C@H](O)[C@@H](NC(=O)c4ccccc4)c4ccccc4)C(C)=C1C3(C)C)[C@]1(OC(C)=O)CO[C@@H]1C[C@@H]2O
**Result** 1.41

**Query** GET CTG-3D luminescence at 96 h where system = HCI-011.E2 and item = C[C@@H]1COCCN1c1cc(C2([S@](C)(=N)=O)CC2)nc(-c2cc[nH]c3nccc2-3)n1
**Result** 1.78
